Data provenance is patent US6274715A.

Test system: STREPTOCOCCUS PYOGENES PIU 2548
assay.method.text: In vitro antibacterial activity, MIC, BHI agar dilution
Type: cell-based
run.conditions: S. pyogenes PIU 2548, unit assumed
property.name: MIC (µg/mL)
// note: answer is a bare numeric in µg/mL

compound	target	readout.units	MIC
CC[C@H]1OC(=O)[C@H](C)C(=O)[C@H](C)[C@@H](O[C@@H]2O[C@H](C)C[C@H](N(C)C)[C@H]2O)[C@](C)(OC)C[C@@H](C)C2=N[C@H](COCc3cccc(Br)c3)CN3C(=O)O[C@@]1(C)[C@H]3[C@H]2C	STREPTOCOCCUS PYOGENES PIU 2548	µg/mL	0.05

Identify measured MIC associated with CC[C@H]1OC(=O)[C@H](C)C(=O)[C@H](C)[C@@H](O[C@@H]2O[C@H](C)C[C@H](N(C)C)[C@H]2O)[C@](C)(OC)C[C@@H](C)C2=NC3CN(CCc4ccc(N)cc4)CC3N3C(=O)O[C@@]1(C)[C@H]3[C@H]2C (some centres unmarked)
0.78

====

The following compounds are listed with their measured MIC values.
Tested on: STAPHYLOCOCCUS AUREUS CMX 642A
assay.method.text: In vitro antibacterial activity, MIC, BHI agar dilution
Assay type: cell-based
run.conditions: S. aureus CMX 642A, unit assumed
Just the number plus its unit, please.

compound	reported.result
CC[C@H]1OC(=O)[C@H](C)C(=O)[C@H](C)[C@@H](O[C@@H]2O[C@H](C)C[C@H](N(C)C)[C@H]2O)[C@](C)(OC)C[C@@H](C)C2=NC3CN(CC)CC3N3C(=O)O[C@@]1(C)[C@H]3[C@H]2C (stereo partly shown) [Example 115]	1.56 µg/mL
CC[C@H]1OC(=O)[C@H](C)C(=O)[C@H](C)[C@@H](O[C@@H]2O[C@H](C)C[C@H](N(C)C)[C@H]2O)[C@](C)(OC)C[C@@H](C)C2=NC[C@H](COC(=O)c3ccncc3)N3C(=O)O[C@@]1(C)[C@H]3[C@H]2C [Example 138]	0.39 µg/mL
CC[C@H]1OC(=O)[C@H](C)C(=O)[C@H](C)[C@@H](O[C@@H]2O[C@H](C)C[C@H](N(C)C)[C@H]2O)[C@](C)(OC)C[C@@H](C)C2=NC3CN(S(=O)(=O)Cc4ccccc4[N+](=O)[O-])CC3N3C(=O)O[C@@]1(C)[C@H]3[C@H]2C (stereo partly shown) [Example 123]	3.1 µg/mL

Now let's try a different one.
Please give the documented MIC of CC[C@H]1OC(=O)[C@H](C)C(=O)[C@H](C)[C@@H](O[C@@H]2O[C@H](C)C[C@H](N(C)C)[C@H]2O)[C@](C)(OC)C[C@@H](C)C2=NC[C@H](Cc3ccc(NC(=O)OCc4ccccc4)cc3)N3C(=O)O[C@@]1(C)[C@H]3[C@H]2C [Example 68]
0.2 µg/mL

====

Tested on: STAPHYLOCOCCUS AUREUS A5177
assay.method.text: In vitro antibacterial activity, MIC, BHI agar dilution
Format: cell-based
run.conditions: S. aureus A5177, unit assumed
property.name: MIC
Field note: include the unit after the figure.

Answer with the recorded MIC of CCC1OC(=O)C(C)C(=O)C(C)C(OC2OC(C)CC(N(C)C)C2O)C(C)(OC)CC(C)C2=NC(COCc3ccc(N(C)C)cc3)CN3C(=O)OC1(C)C3C2C (stereo not drawn) only.
0.39 µg/mL

Give the reported value of MIC for this record: CC[C@H]1OC(=O)[C@H](C)C(=O)[C@H](C)[C@@H](O[C@@H]2O[C@H](C)C[C@H](N(C)C)[C@H]2O)[C@](C)(OC)C[C@@H](C)C2=NC3CN(C(C)c4ccccc4)CC3N3C(=O)O[C@@]1(C)[C@H]3[C@H]2C (stereo partly drawn)
0.39 µg/mL

Fill in MIC for record CC[C@H]1OC(=O)[C@H](C)C(=O)[C@H](C)[C@@H](O[C@@H]2O[C@H](C)C[C@H](N(C)C)[C@H]2O)[C@](C)(OC)C[C@@H](C)C2=NC[C@H](COCc3cccc(F)c3)N3C(=O)O[C@@]1(C)[C@H]3[C@H]2C
0.1 µg/mL
